# EXPERIMENTAL DETAILS: background-corrected fluorescence of 3'-dye-labeled ssDNA relative to brightest sequence (3'-GCGCG) (fraction); higher = brighter dye fluorescence (less quenching)
# PROTOCOL CONDITIONS: dye: Cy5 (3' terminal)
# binarize background-corrected fluorescence: threshold 0.4 inclusive, high side Met, low side Not met

{"columns": ["ORDERED RESIDUES", "CLASSIFICATION"],
 "data": [
  ["TTTTTTGCTCATGCTCATGATTTTTTTTTTTTTTTAGAGC [CGAGA]", "Met"],
  ["TTTTTTGATGCTGATGCTGATTTTTTTTTTTTTTTCACAC", "Not met"],
  ["TTTTTTGCTGAGCATCATGATTTTTTTTTTTTTTTACTGC [CGTCA]", "Not met"],
  ["TTTTTGCATGATCATGCTCATTTTTTTTTTTTTTTTCGAG [GAGCT]", "Met"],
  ["TTTTTTCATGATCAGCATGATTTTTTTTTTTTTTTGCGTC [CTGCG]", "Not met"],
  ["TTTTTTCAGCATGATCAGCATTTTTTTTTTTTTTTGTCGT [TGCTG]", "Met"],
  ["TTTTTTCATCATGATGATCATTTTTTTTTTTTTTTGGCCG [GCCGG]", "Met"],
  ["TTTTTGCAGCATCATGCTCATTTTTTTTTTTTTTTTTGAG [GAGTT]", "Met"]
]}
